Target: human FLAP (Homo sapiens (Human), UniProt P20292)
Sequence (P20292 whole entry): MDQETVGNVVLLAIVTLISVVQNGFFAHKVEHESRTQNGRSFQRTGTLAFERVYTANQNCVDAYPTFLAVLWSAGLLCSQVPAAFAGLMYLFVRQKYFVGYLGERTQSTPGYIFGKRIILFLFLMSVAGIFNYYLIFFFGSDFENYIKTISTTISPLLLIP
Test: FLAP binding assay (HTRF format)
Settings: human FLAP wild type, HTRF format; average of two plates, duplicates
pKi: −log10 of the molar value. Counter-ions that a name gives are not always drawn.
Readout: pKi

Recorded pKi, per entry:
Nc1cnc(-c2ccc(-c3ccccc3S(=O)(=O)C3CC3)cc2F)cn1 [Example 197]	8.00
Nc1cnc(-c2ccc(-c3ccccc3S(=O)(=O)N[C@H]3CC[C@@H](N)CC3)cc2F)cn1 [Example 134]	9.00
Nc1cnc(-c2ccc(-c3ccccc3NS(=O)(=O)N3CCOCC3)cc2F)cn1 [Example 183]	7.47
CC(C)S(=O)(=O)c1ccccc1-c1ccc(-c2cnc(N)cn2)c(F)c1 [Example 199]	7.41
Nc1cnc(-c2ccc(-c3ccccc3S(=O)(=O)N[C@@H]3c4ccccc4C[C@H]3O)cc2F)cn1 [Example 159]	9.00
CNS(=O)(=O)c1ccccc1-c1ccc(-c2cnc(N)nc2)c(F)c1 [Example 288, trifluoroacetic acid salt]	6.99

A = Nc1cnc(-c2ccc(-c3ccccc3S(=O)(=O)N[C@@H]3CCCNC3=O)cc2F)cn1 [Example 113]
B = CCNS(=O)(=O)c1cc(C(F)(F)F)ccc1-c1ccc(-c2cnc(N)cn2)c(F)c1 [Example 211]
Qu. Form field 'greater pKi' accepts A or B ; which applies? Label of pick, please.
Ans. B
(B: 9.00, A: 8.00)

----------
Target: human FLAP (Homo sapiens (Human), UniProt P20292)
Assay: FLAP binding assay (HTRF format)
Settings: wild type FLAP, HTRF format
pKi: −log10 of the molar value. Where a name gives a salt, the structure may show the parent alone.
Readout: pKi

Recorded pKi, per entry:
Nc1ncc(-c2ccc(-c3ccc(C(F)(F)F)cc3Oc3ncccn3)cn2)cn1	6.70
N#Cc1nc(-c2ccc(-c3ccccc3S(=O)(=O)C3CC3)cc2F)cnc1N	7.44
C[C@@H]([C@@H](O)c1ccccc1)N(C)S(=O)(=O)c1ccccc1-c1ccc(-c2cnc(N)c(F)c2)c(F)c1	8.40
Nc1ncc(-c2ccc(-c3cccnc3S(=O)(=O)C3CCCC3)cc2F)cn1 [Example 809, hydrochloride]	8.42
Nc1ccnc(Oc2ccccc2-c2ccc(-c3cnc(N)nc3)nc2)n1	5.60
Nc1cnc(-c2ccc(-c3cccnc3O[C@H]3CC[C@H](N)CC3)cc2F)cn1 [Example 652, formic acid salt]	7.20
COc1cnc(Oc2ccccc2-c2ccc(-c3cnc(N)cn3)c(F)c2)nc1	8.05
Nc1cnc(-c2ccccc2-c2ccc(-c3cnc(N)nc3)c(F)c2)cn1	6.84
Cc1cc(C)nc(Oc2ccccc2-c2ccc(-c3cnc(N)cn3)c(F)c2)n1	7.54
Nc1cnc(-c2ccc(-c3cccnc3S(=O)(=O)C3CCOCC3)cc2F)cn1 [Example 830, hydrochloride]	8.54

I = C[C@@H](NC(=O)c1ccccc1-c1ccc(-c2cnc(N)cn2)c(F)c1)C(F)(F)F
II = COc1nc(-c2ccc(-c3ccccc3S(=O)(=O)NC(C)(C)C)cc2F)cnc1N
Qu. Select the item whose pKi value is smaller, choosing between I and II . Label of pick, please.
Ans. I

----------
Molecular target: human FLAP (Homo sapiens (Human), UniProt P20292)
Assay: FLAP binding assay (HTRF format)
Details: wild type FLAP, HTRF format
Readout: Ki (nM)

Nc1ncc(-c2ccc(-c3cccnc3OC3CCOCC3)cc2F)cn1	130

A = CC(C)(C)NS(=O)(=O)c1ccccc1-c1ccc(-c2ccc(N)nn2)c(F)c1
B = Nc1ncc(-c2ccc(-c3ccccc3-c3cnc(N)nc3)cc2F)cn1
C = Nc1cnc(-c2ccc(-c3ccc(C(F)(F)F)cc3Oc3ccnc(N)n3)cc2F)cn1
D = CC(C)CS(=O)(=O)N(C)c1ccccc1-c1ccc(-c2cnc(N)cn2)c(F)c1
Qu. Ascending sort, Ki. Please express your ranking as an ordered list of the labels.
Ans. C, D, A, B

----------
Biological target: UniProt P20292
Test: FLAP binding assay (HTRF format)
Conditions: wild type FLAP, HTRF format
Counter-ions that a name gives are not always drawn.
Readout: Ki (nM)

Recorded Ki, per entry:
Nc1cnc(-c2ccc(-c3cccnc3S(=O)(=O)C3CCCC3)cc2F)cn1 [Example 810, hydrochloride]	0.6
N#Cc1cccnc1COc1ccccc1-c1ccc(-c2cnc(N)cn2)c(F)c1	8
CC(C)Oc1ncccc1-c1ccc(-c2cnc3[nH]ccc3n2)c(F)c1	28

A = CC(=O)N1CCC(S(=O)(=O)c2ncccc2-c2ccc(-c3cnc(N)cn3)c(F)c2)CC1
B = Nc1ccnc(Oc2ccccc2-c2ccc(-c3cnc4[nH]ccc4c3)c(F)c2)n1
C = COc1cccc2nc(-c3ccc(-c4ccccc4S(=O)(=O)NC(C)(C)C)cc3F)cn12
D = CC(C)(C)NS(=O)(=O)c1ccccc1-c1ccc(-c2ccc3[nH]cnc3c2)c(F)c1
Qu. Ascending sort, Ki. Please express your ranking as an ordered list of the labels.
Ans. B, D, A, C

1 = Nc1cnc(-c2ccc(-c3ccccc3C(=O)NC3CCCCC3)cc2F)cn1
2 = COc1c(-c2ccccc2)ccc(-c2cnc(N)cn2)c1F
3 = CC(CO)Oc1ncccc1-c1ccc(-c2cnc(N)cn2)c(F)c1 (stereo in doubt) [Example 655]
Qu. Ascending sort, Ki. Please express your ranking as an ordered list of the labels.
Ans. 2, 3, 1

----------
Biological target: UniProt:P20292
Experiment: FLAP binding assay (HTRF format)
Details: wild type FLAP, HTRF format
Description: The ability of the compounds of the present invention to treat a FLAP-mediated disease and/or disorder, or associated symptoms or complications thereof, was determined using the following procedures. Binding assay data represent the average value obtained from two different assay plates, with samples run in duplicate on each plate. Human whole blood assay data represent a single replicate on an assay plate using whole blood from at least one healthy donor. Data are expressed as a HTRF ratio.
Where a name gives a salt, the structure may show the parent alone.
Readout: Ki (nM)

CNS(=O)(=O)c1ccccc1-c1ccc(-c2cnc(N)c(C)n2)c(F)c1	22
Nc1ncc(-c2ccc(-c3ccccc3C(=O)N3CCOC(C(F)(F)F)C3)cc2F)cn1 (racemic)	1910
CC(C)(C)NC(=O)c1cc(F)ccc1-c1ccc(-c2cnc(N)cn2)c(F)c1	83
Nc1ccc(Oc2ccccc2-c2ccc(-c3cnc(N)nc3)c(F)c2)nc1	5
Nc1cnc(-c2ccc(-c3ccccc3Oc3nccc(C(F)(F)F)n3)cc2F)cn1	14.6
CC(C)(C)NC(=O)c1cc(C(F)(F)F)ccc1-c1ccc(-c2cnc(N)cn2)c(F)c1	7.9
C[C@H](CO)NC(=O)c1cc(C(F)(F)F)ccc1-c1ccc(-c2cnc(N)cn2)c(F)c1	8.5
Nc1cnc(-c2ccc(-c3ccccc3Oc3cccc(C(F)(F)F)n3)cc2F)cn1	7.8

I = Nc1ncc(-c2ccc(-c3ccc(C(F)(F)F)cc3Oc3ccnc(N)n3)cc2F)cn1
II = Nc1cnc(-c2ccc(-c3cccnc3S(=O)(=O)C3CCC3)cc2F)cn1 [Example 806, hydrochloride]
III = Nc1ncc(-c2ccc(-c3ccccc3S(=O)(=O)NC(C3CC3)C3CC3)cn2)cn1 [Example 684, trifluoroacetic acid salt]
IV = Nc1cnc(-c2ccc(-c3cccnc3S(=O)(=O)C3CC3)cc2F)cn1 [Example 829, formic acid salt]
Qu. Place the items in sequence of falling Ki. Please express your ranking as an ordered list of the labels.
Ans. III, I, IV, II

----------
Target: UniProt P20292
Experiment: FLAP binding assay (HTRF format)
Details: human FLAP wild type, HTRF format; average of two plates, duplicates
pKi: −log10 of the molar value.
Readout: pKi

A = Nc1cnc(-c2ccc(-c3ccccc3S(=O)(=O)N3CCNC(=O)C3)cc2F)cn1
B = O=S(=O)(c1ccccc1-c1ccc(-c2cnc3c(c2)OCCN3)c(F)c1)N1CCCCC1
Qu. Form field 'greater pKi' accepts A or B ; which applies? Label of pick, please.
Ans. B
(B: 8.70, A: 7.68)

----------
Target: human FLAP (Homo sapiens (Human))
Experiment: FLAP binding assay (HTRF format)
Details: wild type FLAP, HTRF format
Method: The ability of the compounds of the present invention to treat a FLAP-mediated disease and/or disorder, or associated symptoms or complications thereof, was determined using the following procedures. Binding assay data represent the average value obtained from two different assay plates, with samples run in duplicate on each plate. Human whole blood assay data represent a single replicate on an assay plate using whole blood from at least one healthy donor. Data are expressed as a HTRF ratio.
Readout: Ki (nM)

Recorded Ki, per entry:
CC(C)S(=O)(=O)c1ncccc1-c1ccc(-c2cnc3[nH]ccc3c2)c(F)c1 [Example 826]	0.7
CC(C)(CO)NS(=O)(=O)c1ccccc1-c1ccc(-c2cnc(N)c(F)c2)c(F)c1 [Example 667]	6
NC(=O)C1(S(=O)(=O)c2ccccc2-c2ccc(-c3cnc(N)cn3)c(F)c2)CCCC1 [Example 731]	14.7

A = CNC(=O)c1ccccc1-c1ccc(-c2cnc(N)cn2)c(F)c1 [Example 510]
B = Nc1cnc(-c2ccc(-c3ccccc3C(F)(F)F)cc2F)cn1 [Example 472]
C = CC(C)(C)NS(=O)(=O)c1ccccc1-c1ccc(-c2cnc3[nH]cnc3c2)c(F)c1 [Example 432]
D = Nc1ncc(-c2ccc(-c3ccccc3Oc3cc(N4CCC4)ncn3)cc2F)cn1 [Example 540]
Qu. Place the items in sequence of falling Ki. Please express your ranking as an ordered list of the labels.
Ans. A, B, D, C

Entry source: patent US9079866B2
